- assay.summary: wn = mass fraction of the nth substance listed
- cond: 338.15 K; 101 kPa; Liquid; Concentric cylinders viscometry; w1 = 0.05
property.name: viscosity (mPa·s)

What measured viscosity goes with CC(O)CN(CC(C)O)CC(C)O (centres undefined) [triisopropanolamine] + O ?
0.535

What measured viscosity goes with OCCNCCO [diethanolamine] + O ?
0.5269

What measured viscosity goes with CC(O)CN (centres undefined) [1-amino-2-propanol] + O ?
0.5381

What measured viscosity goes with CC(O)CNCC(C)O (centres undefined) [N-(2-hydroxypropyl)-2-hydroxy-1-propanamine] + O ?
0.5507

###

- assay.summary: wn = mass fraction of the nth substance listed
- cond: 338.15 K; 101 kPa; Liquid; Concentric cylinders viscometry; w1 = 0.25
property.name: viscosity (mPa·s)

What measured viscosity goes with OCCNCCO [diethanolamine] + O ?
0.9543

What measured viscosity goes with CC(O)CN(CC(C)O)CC(C)O (centres undefined) [triisopropanolamine] + O ?
0.9991

What measured viscosity goes with CC(O)CN (centres undefined) [1-amino-2-propanol] + O ?
0.9015

What measured viscosity goes with CC(O)CNCC(C)O (centres undefined) [N-(2-hydroxypropyl)-2-hydroxy-1-propanamine] + O ?
1.032

###

- assay.summary: wn = mass fraction of the nth substance listed
- cond: 323.15 K; 101 kPa; Liquid; Vibrating tube method; w1 = 0.25
property.name: mass density (kg/m3)

What measured mass density goes with CC(O)CN(CC(C)O)CC(C)O (centres undefined) [triisopropanolamine] + O ?
1002

What measured mass density goes with OCCNCCO [diethanolamine] + O ?
1016

What measured mass density goes with CC(O)CNCC(C)O (centres undefined) [N-(2-hydroxypropyl)-2-hydroxy-1-propanamine] + O ?
1001.86

What measured mass density goes with CC(O)CN (centres undefined) [1-amino-2-propanol] + O ?
989.679

###

- assay.summary: refractive index (Na D-line) (dimensionless); wn = mass fraction of the nth substance listed
- cond: 343.15 K; 101 kPa; Liquid; Standard Abbe refractometry; w1 = 0.15
property.name: refractive index

What measured refractive index goes with CC(O)CN(CC(C)O)CC(C)O (centres undefined) [triisopropanolamine] + O ?
1.34641

What measured refractive index goes with CC(O)CNCC(C)O (centres undefined) [N-(2-hydroxypropyl)-2-hydroxy-1-propanamine] + O ?
1.34583

What measured refractive index goes with CC(O)CN (centres undefined) [1-amino-2-propanol] + O ?
1.34343

What measured refractive index goes with OCCNCCO [diethanolamine] + O ?
1.34633

###

- assay.summary: wn = mass fraction of the nth substance listed
- cond: 313.15 K; 101 kPa; Liquid; Concentric cylinders viscometry; w1 = 0.15
property.name: viscosity (mPa·s)

What measured viscosity goes with CC(O)CN (centres undefined) [1-amino-2-propanol] + O ?
1.084

What measured viscosity goes with CC(O)CN(CC(C)O)CC(C)O (centres undefined) [triisopropanolamine] + O ?
1.159

What measured viscosity goes with CC(O)CNCC(C)O (centres undefined) [N-(2-hydroxypropyl)-2-hydroxy-1-propanamine] + O ?
1.224

What measured viscosity goes with OCCNCCO [diethanolamine] + O ?
1.051

###

- assay.summary: wn = mass fraction of the nth substance listed
- cond: 318.15 K; 101 kPa; Liquid; Concentric cylinders viscometry; w1 = 0.25
property.name: viscosity (mPa·s)

What measured viscosity goes with CC(O)CN(CC(C)O)CC(C)O (centres undefined) [triisopropanolamine] + O ?
1.553

What measured viscosity goes with CC(O)CN (centres undefined) [1-amino-2-propanol] + O ?
1.384

What measured viscosity goes with CC(O)CNCC(C)O (centres undefined) [N-(2-hydroxypropyl)-2-hydroxy-1-propanamine] + O ?
1.633

What measured viscosity goes with OCCNCCO [diethanolamine] + O ?
1.411

Origin of values: the NIST ThermoML archive (doi:10.1021/je300938w)
